Biological target: FGFR
Test: In vitro kinase inhibition studies (Table 13), FGFR
Format: biochemical
readout-name: IC50

// sample "Nc1ncnc2c1c(-c1ccc(Oc3ccccc3)cc1)nn2[C@@H]1CCCN(S(=O)(=O)c2c(F)c(F)c(F)c(F)c2F)C1" , its IC50 was 100 to 1000 nM

###

Target: CSK (Homo sapiens, UniProt P41240)
Sequence (P41240 whole entry, species assumed): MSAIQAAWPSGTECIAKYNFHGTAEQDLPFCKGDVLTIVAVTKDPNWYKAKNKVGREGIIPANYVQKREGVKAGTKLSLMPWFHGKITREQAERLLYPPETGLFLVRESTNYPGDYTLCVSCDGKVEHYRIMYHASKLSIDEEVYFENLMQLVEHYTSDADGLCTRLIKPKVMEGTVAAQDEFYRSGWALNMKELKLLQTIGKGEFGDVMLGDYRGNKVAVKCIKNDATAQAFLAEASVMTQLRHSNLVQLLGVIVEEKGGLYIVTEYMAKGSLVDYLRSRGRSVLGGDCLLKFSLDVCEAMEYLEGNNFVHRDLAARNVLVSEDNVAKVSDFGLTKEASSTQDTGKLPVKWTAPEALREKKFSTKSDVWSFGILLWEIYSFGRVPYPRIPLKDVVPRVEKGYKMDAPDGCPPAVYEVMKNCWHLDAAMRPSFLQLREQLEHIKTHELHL
Assay: In vitro kinase inhibition studies (Table 13), CSK
Format: biochemical
readout-name: IC50

// sample "Nc1ncnc2c1c(-c1ccc(Oc3ccccc3)cc1)nn2[C@@H]1CCCN(S(=O)(=O)c2c(F)c(F)c(F)c(F)c2F)C1" , its IC50 was 100 to 1000 nM

###

Molecular target: UniProtKB P12931
Sequence (P12931 whole entry, species assumed): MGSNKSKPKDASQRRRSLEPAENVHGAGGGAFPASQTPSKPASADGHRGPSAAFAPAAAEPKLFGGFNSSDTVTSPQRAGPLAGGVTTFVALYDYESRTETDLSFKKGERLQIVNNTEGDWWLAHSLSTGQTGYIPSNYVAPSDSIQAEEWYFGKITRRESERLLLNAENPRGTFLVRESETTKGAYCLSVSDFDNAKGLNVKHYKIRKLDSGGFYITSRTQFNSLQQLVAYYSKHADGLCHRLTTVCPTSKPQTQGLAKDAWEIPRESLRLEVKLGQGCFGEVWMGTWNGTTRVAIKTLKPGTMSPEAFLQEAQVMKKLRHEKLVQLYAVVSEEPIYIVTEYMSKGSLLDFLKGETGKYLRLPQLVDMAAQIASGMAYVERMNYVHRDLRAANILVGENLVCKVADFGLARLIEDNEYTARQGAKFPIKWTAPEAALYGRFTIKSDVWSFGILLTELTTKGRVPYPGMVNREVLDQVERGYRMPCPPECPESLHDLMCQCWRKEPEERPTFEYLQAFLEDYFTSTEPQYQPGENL
Assay: In vitro kinase inhibition studies (Table 13), SRC
Type: biochemical
readout-name: IC50

// sample Nc1ncnc2c1c(-c1ccc(Oc3ccccc3)cc1)nn2[C@@H]1CCCN(S(=O)(=O)c2c(F)c(F)c(F)c(F)c2F)C1 [Compound 5-1] , its IC50 was 100 to 1000 nM

###

Target: JAK3 (Homo sapiens, UniProt P52333)
Assay: In vitro kinase inhibition studies (Table 13), JAK3
Type: biochemical
readout-name: IC50

Tested on JAK3 (Homo sapiens, UniProt P52333): "Nc1ncnc2c1c(-c1ccc(Oc3ccccc3)cc1)nn2[C@@H]1CCCN(S(=O)(=O)c2c(F)c(F)c(F)c(F)c2F)C1" . Observed IC50: 100 to 1000 nM

###

Molecular target: EGFR L850R (Homo sapiens)
Sequence (P00533 whole entry L858R, form open): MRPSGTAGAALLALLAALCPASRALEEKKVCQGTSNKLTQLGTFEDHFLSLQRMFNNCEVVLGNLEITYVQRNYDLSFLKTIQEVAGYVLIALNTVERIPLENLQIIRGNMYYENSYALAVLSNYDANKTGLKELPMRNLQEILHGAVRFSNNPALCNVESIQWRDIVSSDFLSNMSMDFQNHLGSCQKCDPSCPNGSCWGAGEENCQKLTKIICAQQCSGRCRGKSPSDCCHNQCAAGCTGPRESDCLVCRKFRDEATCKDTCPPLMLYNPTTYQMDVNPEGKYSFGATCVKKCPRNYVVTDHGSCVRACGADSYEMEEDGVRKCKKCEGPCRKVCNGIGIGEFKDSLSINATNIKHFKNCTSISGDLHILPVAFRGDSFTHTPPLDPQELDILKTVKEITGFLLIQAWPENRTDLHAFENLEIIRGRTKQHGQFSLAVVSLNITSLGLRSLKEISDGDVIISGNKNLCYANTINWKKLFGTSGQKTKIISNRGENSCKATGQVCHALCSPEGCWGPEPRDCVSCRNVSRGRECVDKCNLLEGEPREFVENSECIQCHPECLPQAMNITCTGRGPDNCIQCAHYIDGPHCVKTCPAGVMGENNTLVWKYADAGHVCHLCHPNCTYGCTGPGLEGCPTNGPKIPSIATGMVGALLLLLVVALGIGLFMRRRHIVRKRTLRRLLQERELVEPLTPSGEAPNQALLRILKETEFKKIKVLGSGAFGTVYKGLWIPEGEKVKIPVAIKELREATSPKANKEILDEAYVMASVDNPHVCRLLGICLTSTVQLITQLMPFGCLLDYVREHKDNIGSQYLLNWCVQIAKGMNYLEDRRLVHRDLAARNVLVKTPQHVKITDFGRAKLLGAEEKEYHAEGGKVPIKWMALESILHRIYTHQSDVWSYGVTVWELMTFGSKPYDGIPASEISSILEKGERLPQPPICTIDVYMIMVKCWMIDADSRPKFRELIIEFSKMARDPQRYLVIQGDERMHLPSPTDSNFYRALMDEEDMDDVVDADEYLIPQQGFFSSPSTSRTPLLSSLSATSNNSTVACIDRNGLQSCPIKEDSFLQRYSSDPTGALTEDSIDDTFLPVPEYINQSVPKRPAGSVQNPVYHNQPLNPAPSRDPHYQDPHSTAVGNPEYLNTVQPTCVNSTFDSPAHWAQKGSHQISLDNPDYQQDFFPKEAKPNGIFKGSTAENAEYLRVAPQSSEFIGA
Assay: In vitro kinase inhibition studies (Table 13), EGFR L850R
Assay type: biochemical
readout-name: IC50

// sample "Nc1ncnc2c1c(-c1ccc(Oc3ccccc3)cc1)nn2[C@@H]1CCCN(S(=O)(=O)c2c(F)c(F)c(F)c(F)c2F)C1" , its IC50 was 100 to 1000 nM

###

Biological target: BMX (Homo sapiens, UniProt P51813)
Sequence (P51813 whole entry, species assumed): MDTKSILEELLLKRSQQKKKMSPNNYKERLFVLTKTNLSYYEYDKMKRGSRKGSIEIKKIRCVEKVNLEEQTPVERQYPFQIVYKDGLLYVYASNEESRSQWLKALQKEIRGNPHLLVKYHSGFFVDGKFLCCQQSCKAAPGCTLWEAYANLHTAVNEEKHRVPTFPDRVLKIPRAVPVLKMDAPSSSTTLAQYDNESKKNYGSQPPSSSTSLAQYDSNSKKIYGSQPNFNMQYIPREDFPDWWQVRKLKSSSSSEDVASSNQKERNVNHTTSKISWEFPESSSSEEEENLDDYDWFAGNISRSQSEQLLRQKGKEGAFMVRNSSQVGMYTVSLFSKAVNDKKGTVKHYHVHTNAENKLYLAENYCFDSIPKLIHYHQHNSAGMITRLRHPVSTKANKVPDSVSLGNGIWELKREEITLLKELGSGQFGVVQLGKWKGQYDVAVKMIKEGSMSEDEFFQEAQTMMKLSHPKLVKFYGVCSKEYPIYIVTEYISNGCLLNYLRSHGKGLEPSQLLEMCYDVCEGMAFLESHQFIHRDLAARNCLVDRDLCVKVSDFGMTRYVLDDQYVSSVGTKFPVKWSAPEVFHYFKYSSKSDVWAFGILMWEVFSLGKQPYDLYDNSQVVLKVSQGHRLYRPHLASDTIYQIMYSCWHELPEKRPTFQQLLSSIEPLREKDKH
Test: In vitro kinase inhibition studies (Table 13), BMX
Type: biochemical
readout-name: IC50

// sample Nc1ncnc2c1c(-c1ccc(Oc3ccccc3)cc1)nn2[C@@H]1CCCN(S(=O)(=O)c2c(F)c(F)c(F)c(F)c2F)C1 [Compound 5-1] , its IC50 was 0.1 to 10 nM

###

IC50: recorded values
Target: FGFR4 (Homo sapiens, UniProt P22455)
Sequence (P22455 22-802, species assumed): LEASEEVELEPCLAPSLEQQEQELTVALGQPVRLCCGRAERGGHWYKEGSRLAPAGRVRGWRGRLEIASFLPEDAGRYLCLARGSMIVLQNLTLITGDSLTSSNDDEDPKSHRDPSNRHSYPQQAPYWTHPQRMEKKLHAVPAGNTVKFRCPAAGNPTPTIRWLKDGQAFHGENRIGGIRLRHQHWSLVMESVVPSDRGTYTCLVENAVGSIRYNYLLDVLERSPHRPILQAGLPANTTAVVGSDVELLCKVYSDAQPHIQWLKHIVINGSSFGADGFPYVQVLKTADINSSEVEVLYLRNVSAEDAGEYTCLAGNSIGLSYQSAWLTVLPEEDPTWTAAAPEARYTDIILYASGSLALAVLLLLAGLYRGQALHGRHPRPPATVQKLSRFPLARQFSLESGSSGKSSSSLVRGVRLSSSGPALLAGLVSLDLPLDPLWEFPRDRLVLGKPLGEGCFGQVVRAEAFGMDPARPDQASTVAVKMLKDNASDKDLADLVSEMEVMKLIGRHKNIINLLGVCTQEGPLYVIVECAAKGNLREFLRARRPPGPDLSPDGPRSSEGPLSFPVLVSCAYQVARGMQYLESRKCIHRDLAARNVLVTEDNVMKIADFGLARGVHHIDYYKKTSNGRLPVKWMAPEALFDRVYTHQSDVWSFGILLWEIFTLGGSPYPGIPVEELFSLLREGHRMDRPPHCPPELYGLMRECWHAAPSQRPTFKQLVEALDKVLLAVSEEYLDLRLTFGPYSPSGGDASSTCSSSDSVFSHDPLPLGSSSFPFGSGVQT

cpd-smiles | IC50
COCCOc1ccc(Nc2ncc(F)c(NCCCNS(=O)(=O)c3c(F)c(F)c(F)c(F)c3F)n2)cc1 | 300 to 2000 nM

Let's switch to this compound now.
Tested on FGFR4 (Homo sapiens, UniProt P22455): "COCCOc1ccc(Nc2ncc(F)c(Nc3ccc(NS(=O)(=O)c4c(F)c(F)c(F)c(F)c4F)cc3)n2)cc1" . Observed IC50: 10 to 300 nM

###

Biological target: UniProtKB O14733
Experiment: In vitro kinase inhibition studies (Table 13), MAP2K7
Type: biochemical
readout-name: IC50

// sample "Nc1ncnc2c1c(-c1ccc(Oc3ccccc3)cc1)nn2[C@@H]1CCCN(S(=O)(=O)c2c(F)c(F)c(F)c(F)c2F)C1" , its IC50 was 10 to 100 nM

###

Molecular target: UniProt P51451
Assay: In vitro kinase inhibition studies (Table 13), BLK
Assay type: biochemical
readout-name: IC50

// sample Nc1ncnc2c1c(-c1ccc(Oc3ccccc3)cc1)nn2[C@@H]1CCCN(S(=O)(=O)c2c(F)c(F)c(F)c(F)c2F)C1 [Compound 5-1] , its IC50 was 100 to 1000 nM

###

Target: ERBB2 (Homo sapiens)
Sequence (P04626 23-1255, species assumed): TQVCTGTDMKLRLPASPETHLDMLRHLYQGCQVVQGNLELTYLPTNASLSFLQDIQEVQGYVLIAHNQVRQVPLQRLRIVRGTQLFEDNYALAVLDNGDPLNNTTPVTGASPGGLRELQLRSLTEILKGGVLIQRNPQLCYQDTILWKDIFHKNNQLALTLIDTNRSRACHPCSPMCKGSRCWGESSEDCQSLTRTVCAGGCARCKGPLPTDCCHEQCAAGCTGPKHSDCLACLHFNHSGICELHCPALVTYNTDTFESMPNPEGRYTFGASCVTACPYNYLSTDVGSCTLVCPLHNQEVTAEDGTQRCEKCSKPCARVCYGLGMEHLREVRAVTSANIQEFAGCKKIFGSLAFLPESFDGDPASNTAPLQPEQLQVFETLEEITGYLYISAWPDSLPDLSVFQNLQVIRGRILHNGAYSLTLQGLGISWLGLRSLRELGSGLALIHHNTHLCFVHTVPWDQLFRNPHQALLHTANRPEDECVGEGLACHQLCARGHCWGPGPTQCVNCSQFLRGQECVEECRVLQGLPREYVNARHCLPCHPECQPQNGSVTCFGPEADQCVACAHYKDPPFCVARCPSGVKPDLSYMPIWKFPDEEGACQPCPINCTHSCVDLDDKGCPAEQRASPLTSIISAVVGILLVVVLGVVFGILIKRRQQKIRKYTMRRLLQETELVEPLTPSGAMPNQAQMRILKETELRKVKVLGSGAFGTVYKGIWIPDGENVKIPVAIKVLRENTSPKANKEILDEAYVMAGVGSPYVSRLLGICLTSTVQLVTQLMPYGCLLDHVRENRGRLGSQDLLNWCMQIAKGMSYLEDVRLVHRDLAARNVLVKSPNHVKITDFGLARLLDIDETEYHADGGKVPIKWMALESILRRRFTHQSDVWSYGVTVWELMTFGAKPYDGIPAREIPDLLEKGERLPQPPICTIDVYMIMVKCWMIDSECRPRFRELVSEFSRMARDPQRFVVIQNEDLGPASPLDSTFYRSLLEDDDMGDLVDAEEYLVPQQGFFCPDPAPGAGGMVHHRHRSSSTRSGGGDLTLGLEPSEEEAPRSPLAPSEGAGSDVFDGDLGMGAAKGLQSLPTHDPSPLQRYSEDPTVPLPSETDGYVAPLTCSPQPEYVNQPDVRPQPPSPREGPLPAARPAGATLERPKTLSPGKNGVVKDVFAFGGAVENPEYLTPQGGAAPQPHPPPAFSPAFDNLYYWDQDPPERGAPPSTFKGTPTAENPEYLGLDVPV
Assay: In vitro kinase inhibition studies (Table 13), ERBB2
Format: biochemical
readout-name: IC50

// sample Nc1ncnc2c1c(-c1ccc(Oc3ccccc3)cc1)nn2[C@@H]1CCCN(S(=O)(=O)c2c(F)c(F)c(F)c(F)c2F)C1 [Compound 5-1] , its IC50 was 100 to 1000 nM

###

Target: BMX (Homo sapiens)
Assay: In vitro kinase inhibition studies (Table 9), BMX
Type: biochemical
readout-name: IC50

// sample "Nc1ncnc2c1c(-c1ccc(Oc3ccccc3)cc1)nn2[C@H]1CCCN(S(=O)(=O)c2c(F)c(F)c(F)c(F)c2F)C1" , its IC50 was 0.0001 to 0.01 µM

// sample "COCCOc1ccc(Nc2ncc(F)c(Nc3cccc(N(C)S(=O)(=O)c4c(F)c(F)c(F)c(F)c4F)c3)n2)cc1" , its IC50 was 0.0001 to 0.01 µM

// sample "Nc1ncnc2c1c(-c1ccc(Oc3ccccc3)cc1)nn2[C@@H]1CCCN(S(=O)(=O)c2c(F)c(F)c(F)c(F)c2F)C1" , its IC50 was 0.0001 to 0.01 µM

// sample "Nc1ncnc2c1c(-c1ccc(Oc3ccccc3)cc1)nn2CCNS(=O)(=O)c1c(F)c(F)c(F)c(F)c1F" , its IC50 was 0.0001 to 0.01 µM

// sample "Nc1ncnc2c1c(-c1ccc(Oc3ccccc3)cc1)nn2S(=O)(=O)c1c(F)c(F)c(F)c(F)c1F" , its IC50 was 0.01 to 0.3 µM

###

Target: EGFR L850R, T790M (Homo sapiens, UniProt P00533, T790M, form not given)
Assay: In vitro kinase inhibition studies (Table 13), EGFR L850R, T790M
Format: biochemical
readout-name: IC50

// sample Nc1ncnc2c1c(-c1ccc(Oc3ccccc3)cc1)nn2[C@@H]1CCCN(S(=O)(=O)c2c(F)c(F)c(F)c(F)c2F)C1 [Compound 5-1] , its IC50 was 100 to 1000 nM

###

System: K562
Test: In vitro IC50 against human cancer cells (Table 11), K562
Assay type: cell-based
Details: read-out: Human cancer cell lines (IC50, μM) K562
IC50: recorded values

Example entries begin here.
cpd-smiles | IC50
COc1ccc(N(C)S(=O)(=O)c2c(F)c(F)c(F)c(F)c2F)cc1F | 0.1 to 10 µM
COc1ccc(NS(=O)(=O)c2c(F)c(F)c(F)c(F)c2F)cc1F | ≤ 0.1 µM
O=S(=O)(Nc1ccc(OC(F)(F)F)c(F)c1)c1c(F)c(F)c(F)c(F)c1F | 10 to 100 µM

Let's switch to this compound now.
// sample "O=S(=O)(Nc1ccc(OCF)c(F)c1)c1c(F)c(F)c(F)c(F)c1F" , its IC50 was 0.1 to 10 µM

###

System: RL cells
Test: IC50 of Ibrutinib analogs against human cancer cells, RL cells (Table 14)
Assay type: cell-based
Conditions: Homo sapiens, RL, Table 14; RL human non-Hodgkin's lymphoma B cell line; read-out: RL (IC50)
readout-name: IC50 (nM)
Hi! Could you send only the number? It should be in nM, unit omitted.

// sample C=CC(=O)N1CCC[C@@H](n2nc(-c3ccc(Oc4ccccc4)cc3)c3c(N)ncnc32)C1 [Ibrutinib, reference compound] , its IC50 was 10300

// sample "Nc1ncnc2c1c(-c1ccc(Oc3ccccc3)cc1)nn2[C@@H]1CCCN(S(=O)(=O)c2c(F)c(F)c(F)c(F)c2F)C1" , its IC50 was 2740

// sample "Nc1ncnc2c1c(-c1ccc(Oc3ccccc3)cc1)nn2S(=O)(=O)c1c(F)c(F)c(F)c(F)c1F" , its IC50 was 1640
